target: Gamma-aminobutyric acid receptor subunit alpha-3/beta-3/gamma-2 (Homo sapiens, UniProt P34903+P18507+P28472); assay: In vitro displacement of [3H]Ro-151788 from human GABA-A receptor alpha-3-beta-3-gamma-2 subunits expressed in L(tk-) cells
Sequence (P34903 whole entry): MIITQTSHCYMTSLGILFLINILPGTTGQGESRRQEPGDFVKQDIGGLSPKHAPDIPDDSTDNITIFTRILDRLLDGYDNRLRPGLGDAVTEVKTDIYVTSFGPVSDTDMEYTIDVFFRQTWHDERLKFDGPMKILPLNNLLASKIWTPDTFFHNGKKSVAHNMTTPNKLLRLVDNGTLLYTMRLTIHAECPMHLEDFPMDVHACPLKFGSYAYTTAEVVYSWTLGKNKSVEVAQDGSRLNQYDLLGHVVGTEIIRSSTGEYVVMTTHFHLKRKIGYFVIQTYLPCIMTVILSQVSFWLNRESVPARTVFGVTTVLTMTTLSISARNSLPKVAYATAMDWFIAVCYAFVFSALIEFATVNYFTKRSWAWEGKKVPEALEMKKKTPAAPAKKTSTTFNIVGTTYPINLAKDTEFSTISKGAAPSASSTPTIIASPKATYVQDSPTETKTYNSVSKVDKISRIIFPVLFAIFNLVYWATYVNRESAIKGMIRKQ
Sequence (P18507 as listed by the source): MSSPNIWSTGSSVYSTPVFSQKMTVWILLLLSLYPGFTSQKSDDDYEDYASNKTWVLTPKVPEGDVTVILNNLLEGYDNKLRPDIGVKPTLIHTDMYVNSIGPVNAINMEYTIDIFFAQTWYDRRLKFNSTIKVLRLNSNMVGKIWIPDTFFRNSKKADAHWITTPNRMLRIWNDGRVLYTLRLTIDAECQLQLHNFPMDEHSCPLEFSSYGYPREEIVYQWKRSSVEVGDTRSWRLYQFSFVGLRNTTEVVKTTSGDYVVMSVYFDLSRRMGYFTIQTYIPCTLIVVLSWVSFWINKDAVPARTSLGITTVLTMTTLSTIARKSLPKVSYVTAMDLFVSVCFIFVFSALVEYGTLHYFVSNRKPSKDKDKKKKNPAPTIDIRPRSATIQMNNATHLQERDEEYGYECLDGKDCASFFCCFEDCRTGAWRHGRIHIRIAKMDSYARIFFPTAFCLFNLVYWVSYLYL
Sequence (P28472 whole entry): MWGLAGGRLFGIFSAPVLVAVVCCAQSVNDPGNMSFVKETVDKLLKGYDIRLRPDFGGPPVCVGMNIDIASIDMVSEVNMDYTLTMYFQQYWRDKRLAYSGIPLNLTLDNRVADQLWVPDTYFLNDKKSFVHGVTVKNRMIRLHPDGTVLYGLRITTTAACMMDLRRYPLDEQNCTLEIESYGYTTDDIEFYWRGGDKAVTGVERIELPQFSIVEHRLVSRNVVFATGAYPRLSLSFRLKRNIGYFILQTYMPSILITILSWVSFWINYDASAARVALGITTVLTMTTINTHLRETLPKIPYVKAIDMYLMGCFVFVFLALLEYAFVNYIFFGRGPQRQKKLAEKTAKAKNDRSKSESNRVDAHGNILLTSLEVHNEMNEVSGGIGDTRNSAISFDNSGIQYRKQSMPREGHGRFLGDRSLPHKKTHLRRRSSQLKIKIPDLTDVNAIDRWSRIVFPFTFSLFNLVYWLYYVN
measurement-kind: pKi
// field semantics: pKi = negative decimal log of concentration (mol/L)

// field: pKi; key: O=c1c2cnc3c(c2[nH]n1-c1ccc(OC2CC2)cc1)CCCC3 ; value = 8.66

----------
Below is a list of entries, each paired with its recorded pKi value.
target: Gamma-aminobutyric acid receptor subunit alpha-1/beta-3/gamma-2 (Homo sapiens, UniProt P14867+P18507+P28472); assay: In vitro binding affinity against gamma-aminobutyric acid A receptor, alpha 1 expressed in L(tk) cells by displacement of [3H]Ro-151788
Sequence (P14867 whole entry): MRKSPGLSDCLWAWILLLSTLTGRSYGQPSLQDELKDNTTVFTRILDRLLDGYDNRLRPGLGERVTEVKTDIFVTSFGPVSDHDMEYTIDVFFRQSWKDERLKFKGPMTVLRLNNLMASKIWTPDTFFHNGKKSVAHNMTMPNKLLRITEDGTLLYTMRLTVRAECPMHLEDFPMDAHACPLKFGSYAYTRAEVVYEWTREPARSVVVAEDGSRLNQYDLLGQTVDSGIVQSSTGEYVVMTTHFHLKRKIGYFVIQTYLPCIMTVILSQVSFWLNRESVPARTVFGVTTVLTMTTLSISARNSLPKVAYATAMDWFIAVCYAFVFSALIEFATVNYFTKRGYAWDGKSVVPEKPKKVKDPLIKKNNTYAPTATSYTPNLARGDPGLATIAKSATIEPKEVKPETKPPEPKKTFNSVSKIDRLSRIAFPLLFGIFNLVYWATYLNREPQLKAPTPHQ
Sequence (P18507 as listed by the source): as the sequence (P18507 as listed by the source) above
Sequence (P28472 whole entry): as the sequence (P28472 whole entry) above
# reply with the number alone; pKi is -log10 of concentration in mol/L

- molecule: "O=c1c2cnc3c(c2[nH]n1-c1ccc(OC2CC2)cc1)CCCC3"
  measurement-kind: "pKi"
  measured-number: 8.96

Briefly, pKi measured for O=c1c2cnc3c(c2[nH]n1-c1ccc(OC(F)F)cc1)CCCC3 : 9.00

For reference, reported pKi for O=c1c2c([nH]n1-c1ccc(Cl)cc1)C1CCCCCC1N=C2 (centres undefined) stands at 8.96

Entry O=c1c2cnc3c(c2[nH]n1-c1ccc(OC(F)(F)F)cc1)CCCC3 — recorded pKi = 8.14
